target entity: integrin alphaIIb beta3 on human platelets (Homo sapiens, UniProt P08514;P08514;P05106 P08514:32-887,P08514:891-1039,P05106:27-788)
test: flow; EDTA-sensitive binding, same for resting and thrombin-activated platelets; Mg2+, Ca2+, room temperature
recorded metric: Kd

Exercise: # lookup: Kd of 17.16 (ssRNA, 2'-F C and U) RNA: GGGAGACAAGAAUAAACGCUCAAUUCAACGCUGUGAAGGGCUUAUACGAGCGGAUUACCCUUCGACAGGAGGCUCACAACAGGC
Key: ~10 nM
